test system: P12-Ichikawa; assay: cell viability relative to DMSO control; higher = less cytotoxic; conditions: RPMI 5 mM glucose + 10% FBS; 48 h; 15.4 µM
Measured Attribute: cell viability (%)
Kindly provide the numeric value in % only, without the unit symbol.

Example cases with answers are listed next.
CC[C@H]1CN2CCc3cc(OC)c(OC)cc3[C@@H]2C[C@@H]1C[C@H]1NCCc2cc(OC)c(OC)cc21 : 13.4
O=C(NCc1ccccc1)c1csc(Nc2ccncn2)n1 : 5.79
CCC(C1CCC(C)C(O1)C(C)C(O)C(C)C(=O)C(CC)C2OC\3(O[C@]4(CC[C@@](C)(O4)C5CC[C@@](O)(CC)C(C)O5)C(O)\C=C3)C(C)CC2C)C([O-])=O (some centres undefined) : 56.1
N=C(N)NC(=N)N1CCOCC1 : 92.5
C=CC(=O)Nc1ccc2ncnc(Nc3ccc(OCc4cccc(F)c4)c(Cl)c3)c2c1 : 13.4

Form: item CCN(CC)CCCC(C)Nc1nc(C)cc(Nc2ccc3nc(C)cc(N)c3c2)n1 (centres undefined) ; test system P12-Ichikawa; cell viability: 107

Record for CC(S)C(=O)NCC(=O)O (centres undefined) under target or system P12-Ichikawa: cell viability reported as 109

Tested on P12-Ichikawa, the item Oc1ccc(-c2ccc(-c3cc(Nc4cccc(CNC5CC5)c4)[nH]n3)cc2)c(O)c1 showed cell viability equal to 13.5

Record CC(C)[N+]1(C)C2CCC1CC(OC(=O)C(CO)c1ccccc1)C2.O.[Br-] (centres undefined) / P12-Ichikawa, cell viability recorded as 52.5
